FYI, the data here is from patent US20250059220A1.

The reader will find reported IC50 values listed item by item below.
- target-entity: human PTPN2 (1-387) (Homo sapiens (Human), UniProt P17706)
- Sequence (P17706 other isoform, or with tags, fused parts or gaps): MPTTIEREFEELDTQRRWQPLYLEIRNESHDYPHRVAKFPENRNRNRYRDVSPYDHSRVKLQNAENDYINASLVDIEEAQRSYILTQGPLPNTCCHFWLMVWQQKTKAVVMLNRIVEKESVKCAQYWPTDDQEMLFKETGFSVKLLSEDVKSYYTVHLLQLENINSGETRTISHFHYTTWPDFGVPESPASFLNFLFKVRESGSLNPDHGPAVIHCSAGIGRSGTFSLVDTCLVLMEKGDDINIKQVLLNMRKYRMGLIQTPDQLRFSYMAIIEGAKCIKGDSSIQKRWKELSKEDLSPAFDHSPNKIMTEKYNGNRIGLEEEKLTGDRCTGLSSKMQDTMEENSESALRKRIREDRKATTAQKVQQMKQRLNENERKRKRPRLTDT
property-measured: IC50 (µM)

| compound | measured |
| --- | --- |
| C[C@H](NC(=O)c1ccc2sc(C(F)(F)P(=O)(O)O)c(Br)c2c1)c1cccnc1 | 1.47 |
| O=C(NC1(c2cccnc2)CC1)c1ccc2sc(C(F)(F)P(=O)(O)O)c(Br)c2c1 | 6.63 |
| Cn1nncc1CNC(=O)c1ccc2sc(C(F)(F)P(=O)(O)O)c(Br)c2c1 | 5.83 |

###

The molecules below have reported IC50 for human PTPN1 (1-435) (Homo sapiens (Human), UniProt P18031).

| molecule | unit-abbreviation | IC50 |
| --- | --- | --- |
| O=C(NC1CCS(=O)(=O)C1)c1ccc2sc(C(F)(F)P(=O)(O)O)c(Br)c2c1 (stereo not shown) [Compound 56] | µM | 2.88 |
| CC(Cn1ccnc1)NC(=O)c1ccc2sc(C(F)(F)P(=O)(O)O)c(Br)c2c1 (stereo not shown) [Compound 148] | µM | 5.27 |
| COc1cccc(NC(=O)c2ccc3sc(C(F)(F)P(=O)(O)O)c(C#N)c3c2)c1 [Compound 5] | µM | 1.13 |
| O=C(NC1(c2cncc(C(F)(F)F)c2)CC1)c1ccc2sc(C(F)(F)P(=O)(O)O)c(Br)c2c1 [Compound 111] | µM | 3.98 |
| COCCOc1cc(C)ccc1NC(=O)c1ccc2sc(C(F)(F)P(=O)(O)O)c(Br)c2c1 [Compound 107] | µM | 3.86 |
| O=C(NCc1cccnn1)c1cc(OCCCC(F)(F)F)c2sc(C(F)(F)P(=O)(O)O)c(Br)c2c1 [Compound 10] | µM | 0.00461 |
| COCCCCNC(=O)c1ccc2sc(C(F)(F)P(=O)(O)O)c(Br)c2c1 [Compound 45] | µM | 4.08 |

###

- target-entity: human PTPN1 (1-435) (Homo sapiens (Human), UniProt P18031)
- Sequence (P18031 whole entry): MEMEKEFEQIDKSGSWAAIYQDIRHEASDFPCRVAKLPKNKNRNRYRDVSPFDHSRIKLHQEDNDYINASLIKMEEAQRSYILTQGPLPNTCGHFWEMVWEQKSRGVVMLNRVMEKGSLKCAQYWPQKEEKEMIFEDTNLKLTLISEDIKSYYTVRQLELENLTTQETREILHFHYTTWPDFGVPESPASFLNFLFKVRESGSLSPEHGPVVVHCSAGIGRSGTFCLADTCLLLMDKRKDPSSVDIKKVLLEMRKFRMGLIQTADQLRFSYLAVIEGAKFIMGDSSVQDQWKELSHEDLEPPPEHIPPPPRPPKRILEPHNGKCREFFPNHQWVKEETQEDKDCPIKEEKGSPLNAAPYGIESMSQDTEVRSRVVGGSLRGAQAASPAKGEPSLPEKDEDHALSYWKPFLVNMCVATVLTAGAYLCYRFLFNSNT
pIC50: −log10 of the molar value.

| compound | pIC50 |
| --- | --- |
| O=C(NCc1ccc(C(F)(F)F)nc1)c1ccc2sc(C(F)(F)P(=O)(O)O)c(Br)c2c1 | 5.64 |
| CC(C)C1CC(CNC(=O)c2ccc3sc(C(F)(F)P(=O)(O)O)c(Br)c3c2)C1 (stereo not shown) | 5.38 |
| O=C(NCCCC(F)(F)F)c1ccc2sc(C(F)(F)P(=O)(O)O)c(Br)c2c1 | 5.38 |
| O=P(O)(O)C(F)(F)c1sc2cc(Br)ccc2c1Br | 4.93 |

###

- target-entity: human PTPN2 (1-387) (Homo sapiens (Human), UniProt P17706)
- protocol-notes: Human PTPN2 Biochemical Assay
- condition-parameters: DiFMUP substrate
- Description: Human PTPN2 Biochemical Assay Test compounds were dissolved in DMSO, and 10-point serial 3-fold dilution series in DMSO were prepared in Echo Qualified 384-well Polypropylene Microplates (Labcyte, San Jose, CA) (top concentration 50 µM). […] For detection, assay plates were read on SpectraMax Microplate Reader (Molecular Devices), with Excitation wavelength=360 nm and Emission wavelength=460 nm. […] Calculated % effects were fit using a 4-parameter algorithm, and EC50 was reported.
pIC50: −log10 of the molar value.

| compound | pIC50 |
| --- | --- |
| O=P(O)(O)C(F)(F)c1sc2c(OCCCC(F)(F)F)cc(-c3nnc(C(F)(F)F)[nH]3)cc2c1Br | 8.55 |
| N#Cc1cccc2c(Br)c(C(F)(F)P(=O)(O)O)sc12 | 5.40 |
| CC(NC(=O)c1ccc2sc(C(F)(F)P(=O)(O)O)c(Br)c2c1)c1cccnc1 (centres unmarked) | 5.15 |
| NC(=O)c1cc(OCC(=O)Nc2c(F)cccc2F)c2sc(C(F)(F)P(=O)(O)O)c(Br)c2c1 | 6.53 |
| N#CCCCCCCOc1cc(C(N)=O)cc2c(Br)c(C(F)(F)P(=O)(O)O)sc12 | 7.32 |
| N#CCOc1cc(C(N)=O)cc2c(Br)c(C(F)(F)P(=O)(O)O)sc12 | 6.64 |
| CC(NC(=O)c1ccc2sc(C(F)(F)P(=O)(O)O)c(Br)c2c1)c1cccc2ccccc12 (centres unmarked) | 5.45 |
| Cn1cnc(CNC(=O)c2ccc3sc(C(F)(F)P(=O)(O)O)c(Br)c3c2)n1 | 5.39 |
| O=C(NCC1CCCN(c2ncccn2)C1)c1ccc2sc(C(F)(F)P(=O)(O)O)c(Br)c2c1 (centres unmarked) | 5.29 |
| NC(=O)c1cc(OCCC2CCC2)c2sc(C(F)(F)P(=O)(O)O)c(Br)c2c1 | 7.16 |
| CNS(=O)(=O)c1cc(OCCCC(F)(F)F)c2sc(C(F)(F)P(=O)(O)O)c(Br)c2c1 | 6.05 |
| N#Cc1ccc2c(Br)c(C(F)(F)P(=O)(O)O)sc2c1 | 4.77 |
| NC(=O)c1cc(OCC2CC(C3CC3)C2)c2sc(C(F)(F)P(=O)(O)O)c(Br)c2c1 (centres unmarked) | 7.41 |
| Cc1cc(CNC(=O)c2ccc3sc(C(F)(F)P(=O)(O)O)c(Br)c3c2)no1 | 5.74 |
| Cc1cc(NC(=O)c2ccc3sc(C(F)(F)P(=O)(O)O)c(Br)c3c2)n(Cc2ccccc2)n1 | 5.51 |
| O=C(NC1CCC(F)(F)C1)c1ccc2sc(C(F)(F)P(=O)(O)O)c(Br)c2c1 (centres unmarked) | 5.49 |
| COCCOc1cc(C)ccc1NC(=O)c1ccc2sc(C(F)(F)P(=O)(O)O)c(Br)c2c1 | 5.39 |
| C#Cc1cc(OCCCC(F)(F)F)c2sc(C(F)(F)P(=O)(O)O)c(Br)c2c1 | 6.54 |
| O=C(NC1CCCOC1)c1ccc2sc(C(F)(F)P(=O)(O)O)c(Br)c2c1 (centres unmarked) | 5.17 |
| O=P(O)(O)C(F)(F)c1sc2c(NCCC3CCCCC3)cccc2c1Br | 5.49 |
